log10(half-life): recorded values
- Experiment Description: NO release half-life by disappearance of UV absorption in phosphate buffer
- Type: physicochemical
- Experimental Setup: 22° C., pH 7.4, 0.1M phosphate buffer; read-out: t1/2
Recall that a logarithmic scale is used here: each number is log10 of half-life in h.

Below, 10 molecules whose answers are already recorded.
NCCCN(CCCN)[N+]([O-])=NO : 0.67
NCCCCN(CCCN)[N+]([O-])=NO : 0.44
CN(CCCN)[N+]([O-])=NO : -0.64
CN(CCN)[N+]([O-])=NO : -0.18
CNCCCCCCN(C)[N+]([O-])=NO : -1.35
CCNCCN(CC)[N+]([O-])=NO : 0.74
CC(C)NCCCN(C(C)C)[N+]([O-])=NO : 0.17
CCNCCCN(CC)[N+]([O-])=NO : 0.08
CC(C)N(CCCN)[N+]([O-])=NO : 0.19
CCCN(CCCN)[N+]([O-])=NO : 0.11

Request: Recall and state the measured log10(half-life) for CNCCCN(C)[N+]([O-])=NO .
Result: -0.77

Request: Could you please provide reported log10(half-life) for NCCN(CCN)[N+]([O-])=NO ? Thanks!
Result: 1.75

Request: // Input: NCCCN(C1CCCCC1)[N+]([O-])=NO . Output its log10(half-life) only.
Result: 0.28

Request: Give log10(half-life) for the following molecule: CCN(CCN)[N+]([O-])=NO
Result: 0.74

Request: Answer with the recorded log10(half-life) for the molecule listed here: CNCCCCN(C)[N+]([O-])=NO
Result: -1.66

Request: Fill in reported log10(half-life) for this entry: CNCCN(C)[N+]([O-])=NO
Result: -0.22
